Reference for the values: patent US11578074B2

# system: CYP2D6 (Homo sapiens, UniProt P10635)
# Construct: A system of 100 μL human liver microsomes; from tissue; host or cells: human liver microsomes
# Sequence (P10635 whole entry): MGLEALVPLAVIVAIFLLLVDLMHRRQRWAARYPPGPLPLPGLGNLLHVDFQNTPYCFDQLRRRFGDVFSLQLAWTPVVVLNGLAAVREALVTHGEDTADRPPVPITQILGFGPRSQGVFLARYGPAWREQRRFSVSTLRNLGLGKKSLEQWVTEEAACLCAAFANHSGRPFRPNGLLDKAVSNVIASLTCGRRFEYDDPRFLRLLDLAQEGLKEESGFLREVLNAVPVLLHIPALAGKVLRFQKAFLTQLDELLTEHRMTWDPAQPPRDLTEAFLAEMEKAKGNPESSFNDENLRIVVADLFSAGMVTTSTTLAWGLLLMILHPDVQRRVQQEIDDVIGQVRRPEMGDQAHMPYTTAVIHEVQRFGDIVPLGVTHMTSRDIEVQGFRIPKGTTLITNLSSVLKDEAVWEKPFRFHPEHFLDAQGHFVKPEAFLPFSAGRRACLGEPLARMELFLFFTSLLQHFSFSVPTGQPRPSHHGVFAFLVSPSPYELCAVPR
# protocol.details: Direct inhibition (DI) of CYP2D6 in human liver microsomes
# Format: in vitro ADME
# applied.conditions: probe Dextromethorphan, human liver microsomes 0.2 mg/mL, 10 μM compound, read-out: Direct inhibition (DI) 2D6 (Dextromethorphan)
Short version: inhibition at 20 min, 10 µM at least 10% is satisfied, less is not satisfied.

Does inhibition at 20 min, 10 µM meet or surpass 10% for C=CC(=O)N1CCCC(Nc2ccc3ncnc(Nc4ccc(Oc5cc6nncn6cn5)c(C)c4)c3c2)C1 (stereo in doubt) ? satisfied

Let us now turn to C=CC(=O)N[C@@H]1CCCN(c2ccc3ncnc(Nc4ccc(Oc5cc6nncn6cn5)c(C)c4)c3c2)C1 not satisfied

Here is the next molecule: Cc1cc(Nc2ncnc3ccc(NC(=O)/C=C/[C@H]4CCCN4C)cc23)ccc1Oc1ccn2ccnc2c1 satisfied

Query CCOc1cc2ncnc(Nc3ccc(Oc4cc5nncn5cn4)c(C)c3)c2cc1NC(=O)/C=C/[C@H]1CCCN1 next not satisfied

One more molecule: C=CC(=O)N1CCC(c2ccc3ncnc(Nc4ccc(Oc5cc6nncn6cn5)c(C)c4)c3c2)CC1 not satisfied

Could you do the same for CCOc1cc2ncnc(Nc3ccc(Oc4ccn5ncnc5c4)c(C)c3)c2cc1NC(=O)/C=C/[C@H]1CCCN1 , please? satisfied

Then CCOc1cc2ncnc(Nc3ccc(Oc4cc5nncn5cn4)c(C)c3)c2cc1NC(=O)/C=C/[C@H]1CCCN1C ? not satisfied

Queued: Cc1cc(Nc2ncnc3ccc(NC(=O)/C(F)=C/[C@H]4CCCN4C)cc23)ccc1Oc1cc2nncn2cn1 satisfied

Input C=CC(=O)N[C@H]1CCCN(c2ccc3ncnc(Nc4ccc(Oc5cc6nncn6cn5)c(C)c4)c3c2)C1 satisfied

// same read-out, input: CCOc1cc2ncnc(Nc3ccc(Oc4ccn5ncnc5c4)c(C)c3)c2cc1NC(=O)/C(F)=C\[C@@H]1CCCN1C satisfied

----------
# system: ErbB2 kinase (Homo sapiens, UniProt P04626)
# Construct: The final concentration of ErbB2 kinase was 0.06 ng/μL
# Sequence (P04626 23-1255): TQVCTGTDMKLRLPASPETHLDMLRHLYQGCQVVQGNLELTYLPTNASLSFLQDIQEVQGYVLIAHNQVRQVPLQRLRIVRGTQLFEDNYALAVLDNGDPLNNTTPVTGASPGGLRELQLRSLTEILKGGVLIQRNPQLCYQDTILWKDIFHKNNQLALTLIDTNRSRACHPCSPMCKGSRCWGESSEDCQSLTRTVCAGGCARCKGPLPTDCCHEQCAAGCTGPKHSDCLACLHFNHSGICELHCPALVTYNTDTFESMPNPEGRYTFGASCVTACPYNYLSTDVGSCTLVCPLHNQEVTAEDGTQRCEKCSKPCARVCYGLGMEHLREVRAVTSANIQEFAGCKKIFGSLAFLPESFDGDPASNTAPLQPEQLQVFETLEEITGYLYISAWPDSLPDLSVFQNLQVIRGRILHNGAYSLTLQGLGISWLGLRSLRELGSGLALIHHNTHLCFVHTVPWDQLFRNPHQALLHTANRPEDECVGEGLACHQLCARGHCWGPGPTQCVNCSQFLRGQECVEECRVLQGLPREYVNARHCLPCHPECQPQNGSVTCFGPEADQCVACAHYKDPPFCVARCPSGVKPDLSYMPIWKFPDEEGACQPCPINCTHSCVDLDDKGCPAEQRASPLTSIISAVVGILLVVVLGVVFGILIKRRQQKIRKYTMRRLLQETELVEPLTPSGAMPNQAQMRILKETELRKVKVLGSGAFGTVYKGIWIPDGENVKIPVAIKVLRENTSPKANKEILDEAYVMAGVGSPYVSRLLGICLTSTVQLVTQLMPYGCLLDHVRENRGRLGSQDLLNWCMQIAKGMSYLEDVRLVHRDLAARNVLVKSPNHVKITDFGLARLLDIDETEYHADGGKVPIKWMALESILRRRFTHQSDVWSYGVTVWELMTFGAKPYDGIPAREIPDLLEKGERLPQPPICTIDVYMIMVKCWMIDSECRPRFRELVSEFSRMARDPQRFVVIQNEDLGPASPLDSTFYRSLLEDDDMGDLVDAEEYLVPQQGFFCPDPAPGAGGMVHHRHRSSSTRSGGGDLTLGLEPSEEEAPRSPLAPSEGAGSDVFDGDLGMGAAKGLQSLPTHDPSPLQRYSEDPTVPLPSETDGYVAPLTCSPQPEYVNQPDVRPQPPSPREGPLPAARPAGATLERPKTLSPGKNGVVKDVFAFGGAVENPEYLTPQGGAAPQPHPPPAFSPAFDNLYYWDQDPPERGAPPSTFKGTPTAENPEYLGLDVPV
# protocol.details: EGFR/ErbB2 enzymatic experiment (HTRF kinEASE-TK), ErbB2
# Assay type: biochemical
# applied.conditions: ErbB2 kinase 0.06 ng/μL, ATP 4 μM; read-out: Kinase IC50 (nM) in vitro ErbB2
readout: log10(IC50) (log10 of the value in nM)
Could you please treat all values as log10 of IC50 in nM?

Which value of log10(IC50) has been reported for CCOc1cc2ncnc(Nc3ccc(Oc4ccn5ncnc5c4)c(C)c3)c2cc1NC(=O)/C(F)=C/[C@H]1CCCN1C in the records? 0.26

Okay, and COCCOc1cc2ncnc(Nc3ccc(Oc4cc5nncn5cn4)c(C)c3)c2cc1NC(=O)/C=C/[C@H]1CCCN1 ? 0.43

Same thing, different compound: Cc1cc(Nc2c(C#N)cnc3ccc(NC(=O)/C=C/[C@H]4CCCN4C)cc23)ccc1Oc1cc2nncn2cn1 0.88

Entry Cc1cc(Nc2ncnc3ccc(NC(=O)/C=C/[C@H]4CCCN4C)cc23)ccc1Oc1ccn2ncnc2c1 please -0.23

Try the compound Cc1cc(Nc2ncnc3ccc(NC(=O)/C=C/[C@H]4CCCN4C)cc23)ccc1Oc1ccn2cnnc2c1 0.93

And C=CC(=O)N[C@H]1CCCN(c2ccc3ncnc(Nc4ccc(Oc5cc6nncn6cn5)c(C)c4)c3c2)C1 ? 0.31

Entry C=CC(=O)NC1CCC=C(c2ccc3ncnc(Nc4ccc(Oc5cc6nncn6cn5)c(C)c4)c3c2)C1 (stereo not shown) please -0.02

Repeat with Cc1cc(Nc2ncnc3ccc(/C=C/C(=O)N(C)C)cc23)ccc1Oc1cc2nncn2cn1 1.24

Please give the result for C=CC(=O)N1CCC(c2ccc3ncnc(Nc4ccc(Oc5cc6nncn6cn5)c(C)c4)c3c2)CC1 too. 0.78

And the next one, Cc1cc(Nc2ncnc3ccc(/C=C/C(=O)NC4CC4)cc23)ccc1Oc1cc2nncn2cn1 ? 1.34
